Reference for the values: the Kinase Knowledgebase extract (Sharma et al. 2016)

# study system: PIK3CG (UniProt P48736)
# Sequence (P48736 whole entry, looked up): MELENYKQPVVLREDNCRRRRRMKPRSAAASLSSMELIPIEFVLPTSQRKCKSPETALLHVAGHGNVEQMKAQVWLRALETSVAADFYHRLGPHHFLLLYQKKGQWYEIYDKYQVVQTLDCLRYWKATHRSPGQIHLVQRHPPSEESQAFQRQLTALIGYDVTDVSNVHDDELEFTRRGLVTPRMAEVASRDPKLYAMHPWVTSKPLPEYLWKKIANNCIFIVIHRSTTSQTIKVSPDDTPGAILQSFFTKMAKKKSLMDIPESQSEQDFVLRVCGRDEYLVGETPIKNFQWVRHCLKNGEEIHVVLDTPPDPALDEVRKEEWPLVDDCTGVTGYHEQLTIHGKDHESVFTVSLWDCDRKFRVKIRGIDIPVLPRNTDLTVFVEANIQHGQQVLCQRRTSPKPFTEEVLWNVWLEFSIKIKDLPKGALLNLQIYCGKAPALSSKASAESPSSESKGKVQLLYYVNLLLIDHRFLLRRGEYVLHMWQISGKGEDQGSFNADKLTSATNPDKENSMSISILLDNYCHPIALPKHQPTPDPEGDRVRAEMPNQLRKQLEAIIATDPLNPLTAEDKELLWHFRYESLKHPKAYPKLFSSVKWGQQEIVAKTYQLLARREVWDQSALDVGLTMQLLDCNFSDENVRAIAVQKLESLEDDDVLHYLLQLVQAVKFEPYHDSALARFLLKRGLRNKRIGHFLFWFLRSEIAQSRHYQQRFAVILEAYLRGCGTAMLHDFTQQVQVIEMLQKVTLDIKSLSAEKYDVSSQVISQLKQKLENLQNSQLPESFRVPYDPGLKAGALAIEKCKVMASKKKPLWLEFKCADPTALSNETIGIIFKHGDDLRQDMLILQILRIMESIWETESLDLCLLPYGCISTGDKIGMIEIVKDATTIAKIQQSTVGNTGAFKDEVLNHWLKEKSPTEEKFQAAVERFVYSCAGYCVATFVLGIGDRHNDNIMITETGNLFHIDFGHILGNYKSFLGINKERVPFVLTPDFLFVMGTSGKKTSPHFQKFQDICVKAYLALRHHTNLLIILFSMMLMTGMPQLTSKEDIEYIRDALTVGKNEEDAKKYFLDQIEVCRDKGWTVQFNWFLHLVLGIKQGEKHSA
# assay summary: Inhibition of PIK3CG Kinase Activity
experimental readout: IC50 (µM)
I only need the number, in µM, no unit after it.

Challenge: Specify measured IC50 for `CCCCCCc1ccc(C(=O)N2CCCOc3ccc(/C=C4\SC(=S)NC4=O)cc32)cc1` .
Response given: 4.2

Challenge: Specify measured IC50 for `O=C1NC(=S)S/C1=C\c1ccc2c(c1)N(C(=O)C1CC1)CCCO2` .
Response given: 0.115

Challenge: Specify measured IC50 for `CN1CCN(Cc2ccccc2C(=O)N2CCOc3ccc(/C=C4\SC(=S)NC4=O)cc32)CC1` .
Response given: 0.115

Challenge: Specify measured IC50 for `COc1cc(NC(=O)N2CCOc3ccc(/C=C4\SC(=S)NC4=O)cc32)cc(OC)c1` .
Response given: 0.014

Challenge: Specify measured IC50 for `O=C1NC(=S)S/C1=C\c1ccc2c(c1)N(C(=O)/C=C/c1cccc(C(F)(F)F)c1)CCCO2` .
Response given: 4.01
